system_tested: Beta-galactosidase (Aspergillus niger)
assay_text: Percentage inhibition of Beta-galactosidase from Aspergillus niger at 1 mM concentration

- molecule: "OC1CNC(CNCc2ccco2)C1O (configuration not stated)"
  inhibition (%): 39
- molecule: "OC(O)CC1NCC(O)C1O (configuration not stated)"
  inhibition (%): 91
- molecule: "O[C@@H]1CNC[C@@H]1O"
  inhibition (%): 39
- molecule: "NCC1NCC(O)C1O (configuration not stated)"
  inhibition (%): 24
- molecule: "CC(NCC1NCC(O)C1O)C(O)(c1ccccc1)c1ccccc1 (configuration not stated)"
  inhibition (%): 29
- molecule: "OC1CNC(CNC2CCCC2)C1O (configuration not stated)"
  inhibition (%): 26
- molecule: "OC1CNC(CNCn2ccnc2)C1O (configuration not stated)"
  inhibition (%): 41
